Below, each entry is listed alongside its reported growth.
Tested on: HOP-92 NSCLC
protocol_summary: NCI-60 one-dose screen, 48 h (100 = growth as untreated, 0 = no growth, -100 = all killed)
cond: 10 µM unless noted
Compounds without any hit were thinned out: in the full panel of roughly 83,000, 20% have a hit. Activity calls are given as the source filed them. How the source made its calls: active means growth percent below 10; inactive means the rest.

[[record]]
compound = "Cc1nc2sccn2c1-c1csc(Nc2ccccc2Cl)n1"
readout_type = "growth"
test_value = "60.9% (inactive)"


IN: // lookup growth | system=HOP-92 NSCLC | key= "CCOC(=O)c1cc(/C(=N\O)c2cc(OC)c(OC)c(OC)c2)n2cc(C)cc(C)c12"
OUT: 51.9% (inactive)

IN: Similarly, COc1cc(C2C=C(C)N=C3SC(C)=NN32)cc(OC)c1OC (stereo not given) ?
OUT: 90.9% (inactive)

IN: Similarly, "CSc1ccccc1C#C/C=C\C#Cc1ccccc1N1CCCC1=O" ?
OUT: 40.7% (inactive)

IN: Similarly, "CCN(Cc1ccccc1)c1ccc(SC#N)cc1" ?
OUT: 53.4% (inactive)

IN: Similarly, CCOC(=O)C1=C(C)NC(=O)NC1c1ccc(OCC(=O)N/N=C/c2ccc(Cl)cc2)cc1 (stereo not given) ?
OUT: 90.1% (inactive)

IN: Similarly, "C=C1C(=O)O[C@H]2[C@H](O)[C@@H](C)CCC/C(C)=C/CC[C@@]3(C)O[C@@H]3C[C@@H]12" ?
OUT: 58% (inactive)

IN: Similarly, "COc1cccc(-n2cc(-c3nc(Cl)c4ccccc4n3)nn2)c1" ?
OUT: 101% (inactive)

IN: Similarly, "Cc1ccc(-c2csc3nc(C)c(CCCl)c(=O)n23)cc1" ?
OUT: 80.8% (inactive)

IN: Similarly, CCN(CC)CCCC(C)N=c1cc(Nc2cc(=NC(C)CCCN(CC)CC)c3cc(OC)ccc3o2)oc2ccc(OC)cc12 (stereo not given) ?
OUT: -29.9% (active)

IN: Similarly, "Cc1ccc2nc(-c3c(N)n[nH]c3CCCO)[nH]c(=O)c2c1" ?
OUT: 82.8% (inactive)

IN: Similarly, "O=c1[nH]c(CN2CCN(c3ccccc3F)CC2)nc2sc3c(c12)CCC3" ?
OUT: 89% (inactive)

IN: Similarly, "COc1cc2nc(SCc3cc(OC)c(OC)c(OC)c3)n(Cc3ccccc3)c(=O)c2cc1OC" ?
OUT: 62.7% (inactive)

IN: Similarly, "CC/C=C\C/C=C\C[C@H]1C/C=C2/C(=O)C=C[C@H]2C/C=C\CCC(=O)O1" ?
OUT: -10% (active)

IN: Similarly, "Cc1sc2nc(CSc3nnc(-c4ccco4)o3)[nH]c(=O)c2c1C" ?
OUT: 106% (inactive)

meta.source: PubChem BioAssay (NCI)
